System: Streptococcus pyogenes, G-36
Experiment: Antibacterial activity in vitro, MIC (Table 1)
Assay type: cell-based
Conditions: G36, dilution method on plate culture (heart infusion agar), 10^6/ml, 37° C., 18 hours, read-out: Minimum Inhibitory Concentration (MIC)
MIC values by entry

Study these solved cases before continuing.
1. CC1COc2c(N3CCC(O)C3)c(F)cc3c(=O)c(C(=O)O)cn1c23 (stereo not shown) ... 0.78 µg/mL
2. CCn1cc(C(=O)O)c(=O)c2cnc(N3CCNCC3)nc21 [PPA, reference compound] ... > 100 µg/mL
3. CC1COc2c(N3CCN(C)CC3)c(F)cc3c(=O)c(C(=O)O)cn1c23 (stereo not shown) ... 1.56 µg/mL

Now for the molecule whose MIC we want.
What MIC value was documented for this molecule, CC1COc2c(N3CCNCC3)c(F)cc3c(=O)c(C(=O)O)cn1c23 (stereo not shown) ?
3.13 µg/mL
